Target protein (sequence): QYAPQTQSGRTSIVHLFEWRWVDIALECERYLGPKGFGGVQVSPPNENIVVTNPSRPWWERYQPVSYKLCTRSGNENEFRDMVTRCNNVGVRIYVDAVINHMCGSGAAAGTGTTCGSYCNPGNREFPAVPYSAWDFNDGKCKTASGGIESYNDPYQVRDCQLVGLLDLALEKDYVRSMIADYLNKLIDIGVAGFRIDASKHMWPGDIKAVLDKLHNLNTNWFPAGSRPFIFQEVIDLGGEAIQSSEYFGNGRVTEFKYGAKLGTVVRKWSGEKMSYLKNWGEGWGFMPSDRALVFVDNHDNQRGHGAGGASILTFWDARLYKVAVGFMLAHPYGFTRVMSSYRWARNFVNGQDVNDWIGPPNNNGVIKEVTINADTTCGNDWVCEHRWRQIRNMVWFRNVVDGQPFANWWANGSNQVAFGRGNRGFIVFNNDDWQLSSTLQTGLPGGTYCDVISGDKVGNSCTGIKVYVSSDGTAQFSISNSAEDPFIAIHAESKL
propertyLabel: IC50 (µM)
Report the value in µM with no unit label.

Q: Check the records and state IC50 for Cc1c(C(=O)C=Cc2cccc([N+](=O)[O-])c2)cnn1-c1ccccc1
A: 984

----------
Could you please report measured IC50 for the items listed next?
- testedOn: α-glucosidase (Saccharomyces cerevisiae)
- Sequence (P53341 whole entry): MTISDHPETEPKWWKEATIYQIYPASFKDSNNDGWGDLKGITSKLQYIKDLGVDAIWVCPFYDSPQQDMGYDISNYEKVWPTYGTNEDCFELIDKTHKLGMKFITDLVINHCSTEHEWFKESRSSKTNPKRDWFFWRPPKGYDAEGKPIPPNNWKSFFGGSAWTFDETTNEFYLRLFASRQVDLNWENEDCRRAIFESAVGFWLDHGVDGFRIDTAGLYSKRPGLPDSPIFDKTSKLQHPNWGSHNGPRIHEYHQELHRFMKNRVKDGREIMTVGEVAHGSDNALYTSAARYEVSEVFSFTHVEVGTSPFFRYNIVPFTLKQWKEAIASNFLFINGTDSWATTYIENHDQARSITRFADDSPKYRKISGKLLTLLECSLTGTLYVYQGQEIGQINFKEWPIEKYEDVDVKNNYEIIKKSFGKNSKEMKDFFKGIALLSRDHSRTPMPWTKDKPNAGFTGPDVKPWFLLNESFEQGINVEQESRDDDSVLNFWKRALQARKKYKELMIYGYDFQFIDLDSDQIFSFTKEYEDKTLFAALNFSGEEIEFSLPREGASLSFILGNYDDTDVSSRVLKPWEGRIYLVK
Report the value in µM with no unit label.

Q: Check the records and state IC50 for Cc1c(C(=O)C=Cc2cccc([N+](=O)[O-])c2)cnn1-c1ccccc1
A: 281

Q: Check the records and state IC50 for Cc1cccc(C=CC(=O)c2cnn(-c3ccccc3)c2C)c1
A: 394

Q: Check the records and state IC50 for Cc1c(C(=O)C=Cc2ccc(Cl)cc2Cl)cnn1-c1ccccc1
A: 215
